Target: CAVI (Homo sapiens, UniProt P23280)
Sequence (P23280 21-290 limits assumed): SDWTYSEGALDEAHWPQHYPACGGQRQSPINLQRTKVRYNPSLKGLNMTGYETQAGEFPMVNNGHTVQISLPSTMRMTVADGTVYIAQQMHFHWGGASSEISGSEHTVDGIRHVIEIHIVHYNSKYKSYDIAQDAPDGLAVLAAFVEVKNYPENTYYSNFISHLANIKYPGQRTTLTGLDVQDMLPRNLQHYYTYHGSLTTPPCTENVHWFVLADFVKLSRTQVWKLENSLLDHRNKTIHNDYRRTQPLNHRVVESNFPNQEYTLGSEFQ
test_readout: Kd (nM)
Expressed in nM, but write only the number.

Bench note: what Kd did NS(=O)(=O)c1c(F)c(F)c(S(=O)(=O)CCOC(=O)Cc2ccccc2)c(F)c1F [AV21-25] show? 0.36

====

Molecular target: CA VB (Homo sapiens)
Sequence (Q9Y2D0 34-317): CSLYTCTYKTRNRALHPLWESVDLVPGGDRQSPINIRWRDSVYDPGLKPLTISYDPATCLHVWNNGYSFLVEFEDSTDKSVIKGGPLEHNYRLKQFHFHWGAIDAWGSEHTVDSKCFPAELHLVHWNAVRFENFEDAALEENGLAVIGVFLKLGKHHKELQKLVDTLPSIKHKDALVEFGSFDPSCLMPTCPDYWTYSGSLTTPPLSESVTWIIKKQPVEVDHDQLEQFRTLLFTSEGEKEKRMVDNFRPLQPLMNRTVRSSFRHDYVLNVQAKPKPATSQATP
test_readout: Kd (nM)
Only the number, expressed in nM, is required.

Request body: readout Kd, system CA VB (Homo sapiens), query NS(=O)(=O)c1c(F)c(F)c(S(=O)(=O)CCOC(=O)Cc2ccccc2)c(F)c1F . Return the value. 0.017

====

Target: CAXIII (Homo sapiens)
Sequence (Q8N1Q1 whole entry): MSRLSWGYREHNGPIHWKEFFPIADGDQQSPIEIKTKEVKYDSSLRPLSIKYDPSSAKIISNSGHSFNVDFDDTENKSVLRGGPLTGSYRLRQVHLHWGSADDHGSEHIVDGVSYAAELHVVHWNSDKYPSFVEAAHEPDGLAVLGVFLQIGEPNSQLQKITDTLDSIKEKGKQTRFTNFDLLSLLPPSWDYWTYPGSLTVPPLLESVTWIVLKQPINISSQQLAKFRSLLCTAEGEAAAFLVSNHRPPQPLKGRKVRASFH
Experiment: fluorescent thermal shift assay (FTSA)
Format: binding
Settings: FTSA at 37 °C and pH 7.0, read-out: Kd_app
test_readout: Kd
Hey, just the number and the unit after it is fine.

Tell me the measured Kd of NS(=O)(=O)c1c(F)c(F)c(S(=O)(=O)CCOC(=O)Cc2ccccc2)c(F)c1F , please. 0.012 nM

====

Biological target: UniProt P43166
Sequence (P43166 whole entry): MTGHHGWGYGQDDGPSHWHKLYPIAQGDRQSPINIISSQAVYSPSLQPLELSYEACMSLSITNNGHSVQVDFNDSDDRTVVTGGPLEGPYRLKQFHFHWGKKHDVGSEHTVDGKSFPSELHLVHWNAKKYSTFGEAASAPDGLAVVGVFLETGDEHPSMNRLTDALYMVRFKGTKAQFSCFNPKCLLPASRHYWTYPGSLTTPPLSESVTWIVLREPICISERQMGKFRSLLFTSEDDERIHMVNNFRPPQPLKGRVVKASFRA
test_readout: pKd
The read-out pKd is expressed as -log10 of concentration in moles per litre.

Find the recorded pKd belonging to NS(=O)(=O)c1c(F)c(F)c(S(=O)(=O)CCOC(=O)Cc2ccccc2)c(F)c1F and report it. 9.08

====

Target: UniProtKB O43570
Sequence (O43570 25-354): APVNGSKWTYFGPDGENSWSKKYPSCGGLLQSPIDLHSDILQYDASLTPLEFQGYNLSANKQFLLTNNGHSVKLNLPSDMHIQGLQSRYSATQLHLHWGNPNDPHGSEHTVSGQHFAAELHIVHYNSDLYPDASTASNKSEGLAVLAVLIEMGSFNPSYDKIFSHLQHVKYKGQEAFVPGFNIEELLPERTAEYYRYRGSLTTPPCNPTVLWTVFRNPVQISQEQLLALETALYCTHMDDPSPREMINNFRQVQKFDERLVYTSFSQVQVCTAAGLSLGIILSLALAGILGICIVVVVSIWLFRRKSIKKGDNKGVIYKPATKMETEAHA
test_readout: Kd (nM)
# unit: nM | format: bare number

Fill in the recorded Kd for this compound, with UniProtKB O43570 as test system: NS(=O)(=O)c1c(F)c(F)c(S(=O)(=O)CCOC(=O)Cc2ccccc2)c(F)c1F 0.072

====

Molecular target: CA IV (Homo sapiens)
Sequence (P22748 19-284): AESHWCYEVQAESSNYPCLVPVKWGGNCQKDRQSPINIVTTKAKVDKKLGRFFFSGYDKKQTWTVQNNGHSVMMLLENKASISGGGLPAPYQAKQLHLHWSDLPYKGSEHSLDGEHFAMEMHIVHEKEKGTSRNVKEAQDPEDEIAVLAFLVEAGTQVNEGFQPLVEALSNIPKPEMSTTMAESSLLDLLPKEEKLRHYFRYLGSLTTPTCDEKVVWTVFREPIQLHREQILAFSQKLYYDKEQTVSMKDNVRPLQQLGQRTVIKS
test_readout: pKd
Scale: pKd equals -log10([C]), with [C] in mol/L.

Lab note: need pKd with CA IV (Homo sapiens) for entry NS(=O)(=O)c1c(F)c(F)c(S(=O)(=O)CCOC(=O)Cc2ccccc2)c(F)c1F , please look it up. 7.35

====

Target: CAIII (Homo sapiens)
Sequence (P07451 whole entry): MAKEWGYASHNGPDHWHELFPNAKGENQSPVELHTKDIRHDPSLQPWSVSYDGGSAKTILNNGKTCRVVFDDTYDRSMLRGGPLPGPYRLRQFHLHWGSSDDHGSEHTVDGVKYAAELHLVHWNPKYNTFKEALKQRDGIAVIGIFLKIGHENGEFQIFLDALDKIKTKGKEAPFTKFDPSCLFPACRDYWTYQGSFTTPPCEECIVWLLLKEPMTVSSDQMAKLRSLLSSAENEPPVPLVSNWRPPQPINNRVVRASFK
test_readout: pKd
Value format note: pKd is -log10 of concentration (mol/L); just state the number.

Lab note: need pKd for NS(=O)(=O)c1c(F)c(F)c(S(=O)(=O)CCOC(=O)Cc2ccccc2)c(F)c1F on CAIII (Homo sapiens), anyone have it? 4.74
